Entry source: ChEMBL document CHEMBL4296182

List of Inhibition values.
Tested on: Acinetobacter baumannii
ASSAY COMMENT: Antibacterial activity against Acinetobacter baumannii ATCC 19606 (CO-ADD:GN_034); MIC in CAMBH media using NBS plates, by Resazurin F(560/590)
Assay type: functional
EXPERIMENTAL PARAMETERS: Concentration 20 uM, ASSAY_TEST Inhibition of Bacterial Growth, detection method Resazurin, Fluorescence (ex560/em590), MEDIA CAMHB, plate type 384well, CORNING #3640, time 18 hr
REPORTED PROPERTY: Inhibition (%)

>>> df
                                    compound  result_unit  endpoint_result
 0                O=C1C(Br)=Cc2cccc3cccc1c23            %           -14.96
 1                O=C(C(=O)c1cccnc1)c1cccnc1            %            -9.17
 2                 Nc1ccc2c(c1)nnn2-c1ccccc1            %            -3.79
 3     O=C(NCc1ccco1)Nc1cccc([N+](=O)[O-])c1            %             8.34
 4       CCOC(=O)c1cc(OCC)c2c(ccc3ccccc32)n1            %             1.72
 5                       NCc1c(O)ccc2ccccc12            %            -7.97
 6   Cn1c(=O)c2c(nc(OCCc3ccccc3)n2C)n(C)c1=O            %            -9.02
 7              O=C1Cc2cccc(O)c(=O)c2C(=O)O1            %             9.21
 8                         Nc1cc(O)nc2ncnn12            %            -2.47
 9         COc1cccc(/C=C/c2nccc3ccccc23)c1OC            %             1.37
10                    CCCNC(=O)Nc1ccc(C)cc1C            %            10.44
11  O=C1C(CO)C(CO)C(CO)C1CO (stereo not drawn)            %           -16.04
12  CC1(C)OC2CC(=O)OCC23C1CC(=O)C1(C)C3CCC2(C)C(c3ccoc3)OC(=O)C3OC321 (stereo not drawn)            %            -6.97

----------
Test system: Staphylococcus aureus
ASSAY COMMENT: Antibacterial activity against Staphylococcus aureus MRSA ATCC 43300 (CO-ADD:GP_020); MIC in CAMBH media using NBS plates, by Resazurin F(560/590)
Format: functional
EXPERIMENTAL PARAMETERS: Concentration 20 uM, ASSAY_TEST Inhibition of Bacterial Growth, detection method Resazurin, Fluorescence (ex560/em590), MEDIA CAMHB, plate type 384well, CORNING #3640, time 18 hr
List of Inhibition values.
REPORTED PROPERTY: Inhibition (%)

>>> print(df.to_string())
                                    molecule                 target  endpoint_result
 0               CCCCN1C(=O)CC(C(=O)OCC)=C1C  Staphylococcus aureus            -5.09
 1              O=C(NC(=S)Nc1ccccn1)c1ccccc1  Staphylococcus aureus            -7.14
 2     NC(=N\c1ccc(N)cc1)/C(N)=N/c1ccc(N)cc1  Staphylococcus aureus            -1.65
 3      Cn1cnc([N+](=O)[O-])c1Sc1n[nH]c(N)n1  Staphylococcus aureus             6.38
 4              COC(=O)Cc1[nH]c(O)nc1C(=O)OC  Staphylococcus aureus             5.51
 5                    Cc1nc2ccccc2nc1N1CCCC1  Staphylococcus aureus            12.43
 6              O=C(O)c1ccc(OCCOc2ccccc2)cc1  Staphylococcus aureus            -1.13
 7             Br.CN(C)c1n/c(=N/Cc2ccco2)ss1  Staphylococcus aureus            15.96
 8       Cc1ccc(Nc2nc(Cl)nc3ncn(C)c23)c(C)c1  Staphylococcus aureus                8
 9  CCOC(=O)c1nnsc1-c1ccc(-c2snnc2C(=O)OCC)cc1  Staphylococcus aureus             4.36
10                O=C(C(=O)c1cccnc1)c1cccnc1  Staphylococcus aureus             7.87
11  OCC1CCCC(n2cnc3c(S)ncnc32)O1 (stereo not drawn)  Staphylococcus aureus             9.66
12  Brc1ccc(-c2csc(Nc3nc(-c4ccc(Br)cc4)cs3)n2)cc1  Staphylococcus aureus            27.27
